Ref: paper PMC5540273

System: DYRK1B
conditionDescription: concentration: 1 μM, replicates: in singlicate; n = 1;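 also: KINOMEscan kinase panel screen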
measuredParameter: %Inh (%)
The figure you give is taken to be in %; do not add the unit.

For orientation, consider the following solved cases.
entrySmiles: CC(C)(C)n1cnc2c(N)ncnc21
targetDesc: DYRK1B
%Inh, %: 61
//
entrySmiles: Fc1ccc(-c2ncn(CCCN3CCOCC3)c2-c2ccccn2)cc1
targetDesc: DYRK1B
%Inh, %: 37

Quick note, %Inh for `O=C(Nc1cccc(-c2nn3ncccc3c2-c2ccnc(Nc3cccc(C(F)(F)F)c3)n2)c1)c1c(F)cccc1F` landed at 0

Quick note, %Inh for `O=C1Cc2cc(Nc3nc(NCc4cccc(S(=O)(=O)C(F)(F)F)c4)ncc3C(F)(F)F)ccc2N1` landed at 26

* * *

Test system: SGK2
conditionDescription: concentration: 1 μM, replicates: in singlicate; n = 1
Field: label. Allowed values: rule met (%Inh < 1%) or rule not met (%Inh >= 1%).

compound: COc1ccc(Nc2nccc(N3CCC(NC(=O)Nc4cccc(C(C)=O)c4)C3)n2)cc1 (stereo not drawn)
targetDesc: SGK2
cat: rule met
//
compound: Cc1ccc(NC(=O)c2ccnc(N3CCN(C)CC3)c2)cc1-c1ccc(C(=O)NCC2CC2)cc1
targetDesc: SGK2
cat: rule met
//
compound: O=c1cc(N2CCOCC2)nc2n(Cc3cccc(C(F)(F)F)c3)ccn12
targetDesc: SGK2
cat: rule met
//
compound: O=C(Nc1cccc(-c2nn3ncccc3c2-c2ccnc(Nc3cccc(C(F)(F)F)c3)n2)c1)c1c(F)cccc1F
targetDesc: SGK2
cat: rule not met
//
compound: CC(=O)Nc1ccc(COc2ccc(Nc3ccnc4cc(-c5ccccn5)ccc34)cc2)cc1.Cl
targetDesc: SGK2
cat: rule met
//
compound: Cc1cccc(-c2nc(Nc3ccc4ncsc4c3)c3ccccc3n2)n1
targetDesc: SGK2
cat: rule met

Turning now to a further compound:
query: State whether 1% exceeds %Inh recorded for `Cl.Nc1ncnc2occ(-c3ccc(NC(=O)Nc4cc(C(F)(F)F)ccc4F)cc3)c12` .
result: rule not met

* * *

Tested on: AKT2
conditionDescription: concentration: 1 μM, replicates: in singlicate; n = 1
Reported %Inh values follow for various molecules
The figure you give is taken to be in %; do not add the unit.

molecule: CC(C)Oc1ccc2c(-c3ccnc(Nc4ccc(N5CCN(C)CC5)cc4)n3)cnn2n1
unitAnnotation: %
measuredValue: 0
//
molecule: Cc1ccc(NC(=O)c2ccnc(N3CCN(C)CC3)c2)cc1-c1ccc(C(=O)NCC2CC2)cc1
unitAnnotation: %
measuredValue: 0
//
molecule: O=C(NCCNc1ccnc(Nc2ccc(F)cc2)n1)Nc1ccccc1F
unitAnnotation: %
measuredValue: 0

Reading of %Inh for `COCCNC(=O)c1ccc(-c2cc(C(=O)NC3CC3)cc(F)c2C)cc1` with AKT2: 15

Reading of %Inh for `CN(C(=O)c1ccc(-c2cc(-c3c[nH]nc3-c3ccccn3)ccn2)cc1)C1CCOCC1` with AKT2: 0

Reading of %Inh for `Cc1nnc(-c2ccc(C)c(-c3ccc(C(=O)Nc4ccc(NS(C)(=O)=O)cc4)cc3)c2)o1` with AKT2: 12

Reading of %Inh for COc1ccc(CNC(=O)NC2CCN(c3ccnc(Nc4ccc(OC)cc4)n3)C2)cc1 (centres unmarked) with AKT2: 0

Reading of %Inh for `N#Cc1c(N2CCOCC2)sc(-c2ccn[nH]2)c1-c1ccc(Cl)cc1` with AKT2: 0
